Test system: L1210
Experiment: In vitro inhibition against replication of L1210 murine cells
Format: functional
Details: Mus musculus, read-out: ED50 (the source's name)
Result Type: EC50 (µM)

Example results:
>>> reading("Nc1ccn([C@H]2C[C@H](N)[C@@H](CO)O2)c(=O)n1")
0.7
>>> reading("N[C@@H]1C[C@H](n2cc(C(F)(F)F)c(=O)[nH]c2=O)O[C@@H]1CO")
150
>>> reading("[N-]=[N+]=N[C@H]1C[C@H](n2cc(C(F)(F)F)c(=O)[nH]c2=O)O[C@@H]1CO")
400
>>> reading("N[C@H]1C[C@H](n2ccc(=O)[nH]c2=O)O[C@@H]1CO")
18
>>> reading("Cc1cn([C@H]2C[C@@H](N)[C@@H](CO)O2)c(=O)nc1N")
25

[A] N[C@@H]1C[C@H](n2cc(F)c(=O)[nH]c2=O)O[C@@H]1CO
[B] Nc1nc(=O)n([C@H]2C[C@@H](N)[C@@H](CO)O2)cc1F
[C] N[C@@H]1C[C@H](n2cc(I)c(=O)[nH]c2=O)O[C@@H]1CO
stdin: Could you please sort these 3 entries by EC50 from high to low? Labels, ranked as asked.
stdout: C, A, B
(C: 400 µM, A: 15 µM, B: 10 µM)

Hey, just so you know, these numbers are from ChEMBL document CHEMBL1122407.
